The measured values listed here are drawn from ChEMBL document CHEMBL1129453.

target: Serotonin 3 receptor (5HT3) (Mus musculus, UniProt Q9JHJ5+P23979); assay: Displacement of [3H]-BRC 36694 from 5-hydroxytryptamine 3 receptor in NG108-15 cells; format: cell-based
// reported IC50 per item
readout_name: IC50 (µM)

[
  {
    "compound": "COc1cccc2c1CC1(CCCCN1CCCCN1C(=O)CC3(CCCC3)CC1=O)CO2 (stereo not given)",
    "measurement_units": "µM",
    "relational_operator": "=",
    "recorded_measurement": 41.4
  },
  {
    "compound": "COc1cccc2c1CC1(CCCCN1CCCCNS(=O)(=O)c1ccc(C)cc1)CO2 (stereo not given)",
    "measurement_units": "µM",
    "relational_operator": "=",
    "recorded_measurement": 118
  },
  {
    "compound": "COc1cccc2c1CC1(CCC(=O)N1)CO2 (stereo not given)",
    "measurement_units": "µM",
    "relational_operator": ">",
    "recorded_measurement": 100
  },
  {
    "compound": "COc1cccc2c1CC1(CCCN1CCCCN1C(=O)CC3(CCCC3)CC1=O)CO2 (single isomer, unassigned; (+))",
    "measurement_units": "µM",
    "relational_operator": "=",
    "recorded_measurement": 12.1
  },
  {
    "compound": "CCCN1CCCC12COc1cccc(O)c1C2 (stereo not given)",
    "measurement_units": "µM",
    "relational_operator": "=",
    "recorded_measurement": 7.93
  }
]

###

test: Binding affinity to 5-hydroxytryptamine 2 receptor using calf frontal cortex, [3H]- ketanserin, and spiperone for NSB; parameters: species or system Bos taurus

[
  {
    "compound": "COc1cccc2c1CC1(CCCN1C(C)=O)CO2 (stereo not drawn)",
    "measurement_units": "µM",
    "relational_operator": ">",
    "IC50": 100
  },
  {
    "compound": "O=C1CC2(CCCC2)CC(=O)N1CCCCN1CCN(c2ncccn2)CC1",
    "measurement_units": "µM",
    "relational_operator": "=",
    "IC50": 10
  },
  {
    "compound": "CCCN(CCCCN1C(=O)CC2(CCCC2)CC1=O)C1COc2cccc(OC)c2C1 (stereo in doubt; 2)",
    "measurement_units": "µM",
    "relational_operator": "=",
    "IC50": 1
  },
  {
    "compound": "O=C1CC2(CCCC2)CC(=O)N1CCCCN1CCCC12COc1ccccc1C2 (stereo not drawn)",
    "measurement_units": "µM",
    "relational_operator": "=",
    "IC50": 5.95
  },
  {
    "compound": "COc1cccc2c1CC1(CCCCN1CCCCNC(=O)c1ccc(F)cc1)CO2 (stereo not drawn)",
    "measurement_units": "µM",
    "relational_operator": "=",
    "IC50": 8.39
  },
  {
    "compound": "CCCN(CCCCN1C(=O)CC2(CCCC2)CC1=O)C1COc2cccc(OC)c2C1 (single isomer, unassigned; (+))",
    "measurement_units": "µM",
    "relational_operator": "=",
    "IC50": 3
  },
  {
    "compound": "COc1cccc2c1CC1(CCCCN1CCCCNS(=O)(=O)c1ccc(C)cc1)CO2 (stereo not drawn)",
    "measurement_units": "µM",
    "relational_operator": "=",
    "IC50": 21.1
  },
  {
    "compound": "COc1cccc2c1CC1(CCCN1CCCCN1C(=O)CC3(CCCC3)CC1=O)CO2 (stereo in doubt; 11a)",
    "measurement_units": "µM",
    "relational_operator": "=",
    "IC50": 6.61
  },
  {
    "compound": "CCCN(CCC)C1CCc2cccc(O)c2C1 (stereo not drawn)",
    "measurement_units": "µM",
    "relational_operator": "=",
    "IC50": 49
  },
  {
    "compound": "COc1cccc2c1CC1(CCC(=O)N1)CO2 (stereo not drawn)",
    "measurement_units": "µM",
    "relational_operator": ">",
    "IC50": 100
  },
  {
    "compound": "COc1cccc2c1CC1(CCCN1CCCCN1C(=O)CC3(CCCC3)CC1=O)CO2 (single isomer, unassigned; (+))",
    "measurement_units": "µM",
    "relational_operator": "=",
    "IC50": 0.886
  },
  {
    "compound": "COc1cccc2c1CC1(CCCN1)CO2 (stereo not drawn)",
    "measurement_units": "µM",
    "relational_operator": "=",
    "IC50": 71.4
  },
  {
    "compound": "CCCN1C(=O)CCC12COc1cccc(OC)c1C2 (stereo not drawn)",
    "measurement_units": "µM",
    "relational_operator": "=",
    "IC50": 793
  },
  {
    "compound": "CCCN1CCCCC12COc1cccc(OC)c1C2 (stereo not drawn)",
    "measurement_units": "µM",
    "relational_operator": "=",
    "IC50": 41.4
  },
  {
    "compound": "CCCN1CCCC12COc1cccc(O)c1C2 (stereo not drawn)",
    "measurement_units": "µM",
    "relational_operator": "=",
    "IC50": 364
  },
  {
    "compound": "CCCN1CCCC12COc1cccc(OCCCCN3C(=O)CC4(CCCC4)CC3=O)c1C2 (stereo not drawn)",
    "measurement_units": "µM",
    "relational_operator": "=",
    "IC50": 67.3
  },
  {
    "compound": "COc1cccc2c1CC1(CCCCN1CCCCN1C(=O)CC3(CCCC3)CC1=O)CO2 (stereo not drawn)",
    "measurement_units": "µM",
    "relational_operator": "=",
    "IC50": 2.91
  },
  {
    "compound": "CCCN(CCC)C1COc2cccc(OC)c2C1 (stereo not drawn)",
    "measurement_units": "µM",
    "relational_operator": "=",
    "IC50": 60
  }
]
